- assay_system: GST-Nv-NF-kB (Ser allele) (Nematostella vectensis, UniProt A7UNT2 2-411)
- Sequence: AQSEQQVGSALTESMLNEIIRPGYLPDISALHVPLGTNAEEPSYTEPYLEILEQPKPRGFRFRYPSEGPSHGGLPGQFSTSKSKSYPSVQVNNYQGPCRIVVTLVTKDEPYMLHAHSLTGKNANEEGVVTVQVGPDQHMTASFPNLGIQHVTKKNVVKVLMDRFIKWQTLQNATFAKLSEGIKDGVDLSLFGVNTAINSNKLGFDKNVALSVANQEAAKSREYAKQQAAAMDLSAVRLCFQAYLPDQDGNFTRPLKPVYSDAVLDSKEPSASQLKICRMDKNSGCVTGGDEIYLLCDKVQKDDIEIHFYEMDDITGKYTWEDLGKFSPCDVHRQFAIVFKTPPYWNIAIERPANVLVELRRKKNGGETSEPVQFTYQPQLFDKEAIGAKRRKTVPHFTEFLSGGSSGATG
- test_method_notes: protein-binding microarray (PBM); PBM: ~300 nM protein, 6 mM HEPES pH 7.8, 80 mM KCl, 0.5 mM EDTA, 0.5 mM EGTA, 6% glycerol, 35 ng/ul poly-dIdC, 1% milk, 1 h, room temperature; Ap Aiptasia and Nv Nematostella (sea anemones) / Co Capsaspora / Aq Amphimedon (sponge) / Dm Drosophila / Hu human; RHD is the Rel homology domain; high values mean tight binding
- experimental_context: dsDNA, one strand shown
API: label(entry) gives satisfied if the entry's binding signal is strictly smaller than 7 z-score; on equality or larger values it gives not satisfied.

For "CCGATTAACATCAGGGGCAGTACTGATGTTAATCGGGTCTTGATTCGCTTGACGCTGCTG" , is the recorded binding signal below the cut-off of 7 z-score?
satisfied

For "CCGATTAACATCAGGGAACCCCCTGATGTTAATCGGGTCTTGATTCGCTTGACGCTGCTG" , is the recorded binding signal below the cut-off of 7 z-score?
not satisfied

For "CCGATTAACATCAAAATTTCCCCTGATGTTAATCGGGTCTTGATTCGCTTGACGCTGCTG" , is the recorded binding signal below the cut-off of 7 z-score?
not satisfied

For "CCGATTAACATCAGGGAGTTTTATGATGTTAATCGGGTCTTGATTCGCTTGACGCTGCTG" , is the recorded binding signal below the cut-off of 7 z-score?
satisfied

For "CCGATTAACATCAGGCATCCCCATGATGTTAATCGGGTCTTGATTCGCTTGACGCTGCTG" , is the recorded binding signal below the cut-off of 7 z-score?
satisfied

Hey, just so you know, these numbers are from paper PMC5700166.
